target: Tp53rk (Homo sapiens); experiment: AAP protein-level capture with TMT, staurosporine competition in HeLa lysate
Sequence (Q96S44 whole entry): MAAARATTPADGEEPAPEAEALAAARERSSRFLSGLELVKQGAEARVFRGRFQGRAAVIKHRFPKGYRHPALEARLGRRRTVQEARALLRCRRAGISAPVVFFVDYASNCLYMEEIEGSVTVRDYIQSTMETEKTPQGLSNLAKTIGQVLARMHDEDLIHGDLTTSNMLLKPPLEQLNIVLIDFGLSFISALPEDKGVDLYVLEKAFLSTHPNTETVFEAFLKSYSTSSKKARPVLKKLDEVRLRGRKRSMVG
REPORTED METRIC: IC50
Write your answer as a measured quantity: the number, then the unit.

Query :: For CN[C@@H]1C[C@H]2O[C@@](C)([C@@H]1OC)n1c3ccccc3c3c4c(c5c6ccccc6n2c5c31)C(=O)NC4 [staurosporine] , what is its reported IC50?
Result :: 73 µM
